FYI, the data here is from patent US20040086886A1.

# Assayed system: I57T-MiRP1/HERG channels (Homo sapiens, UniProt Q12809)
# Sequence (Q12809 whole entry): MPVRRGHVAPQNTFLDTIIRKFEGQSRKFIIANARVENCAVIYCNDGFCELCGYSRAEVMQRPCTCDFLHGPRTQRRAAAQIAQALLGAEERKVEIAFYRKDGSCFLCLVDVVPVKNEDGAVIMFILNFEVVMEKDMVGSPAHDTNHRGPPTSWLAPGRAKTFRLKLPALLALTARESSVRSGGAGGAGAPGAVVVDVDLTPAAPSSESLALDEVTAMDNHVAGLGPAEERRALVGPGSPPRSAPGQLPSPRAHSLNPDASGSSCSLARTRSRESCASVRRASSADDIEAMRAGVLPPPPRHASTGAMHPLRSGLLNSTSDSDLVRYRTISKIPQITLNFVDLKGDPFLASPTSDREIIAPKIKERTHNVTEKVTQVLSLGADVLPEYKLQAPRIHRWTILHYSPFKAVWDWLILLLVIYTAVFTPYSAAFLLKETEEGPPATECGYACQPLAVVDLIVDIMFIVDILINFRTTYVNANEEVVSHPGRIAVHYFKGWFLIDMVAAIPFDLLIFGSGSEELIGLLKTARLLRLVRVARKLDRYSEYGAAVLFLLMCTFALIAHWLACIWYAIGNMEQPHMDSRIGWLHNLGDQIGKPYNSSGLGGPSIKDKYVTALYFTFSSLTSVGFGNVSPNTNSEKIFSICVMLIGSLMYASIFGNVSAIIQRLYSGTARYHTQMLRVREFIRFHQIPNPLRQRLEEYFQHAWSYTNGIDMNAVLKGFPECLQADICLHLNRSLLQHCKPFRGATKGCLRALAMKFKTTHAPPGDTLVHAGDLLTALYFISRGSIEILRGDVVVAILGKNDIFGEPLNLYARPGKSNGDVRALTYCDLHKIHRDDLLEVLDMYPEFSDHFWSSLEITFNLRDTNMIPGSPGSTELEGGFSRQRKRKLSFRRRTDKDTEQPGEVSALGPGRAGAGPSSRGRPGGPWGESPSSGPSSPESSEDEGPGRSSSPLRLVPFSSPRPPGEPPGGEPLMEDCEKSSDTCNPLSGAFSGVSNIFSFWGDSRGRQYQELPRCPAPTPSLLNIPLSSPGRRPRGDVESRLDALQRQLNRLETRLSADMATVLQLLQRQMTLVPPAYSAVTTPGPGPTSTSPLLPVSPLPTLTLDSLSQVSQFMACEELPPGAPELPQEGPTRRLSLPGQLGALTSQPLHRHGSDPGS
# Sequence (Q9Y6J6 whole entry I57T, further chain): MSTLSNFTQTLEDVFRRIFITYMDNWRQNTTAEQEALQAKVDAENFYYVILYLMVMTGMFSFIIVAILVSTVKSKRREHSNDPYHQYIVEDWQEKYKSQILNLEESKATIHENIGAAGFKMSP
# Protocol description: cell-based
Quantity: Ki (µM)
Numbers only, in µM.

Per the records, this compound ( O=c1[nH]c2ccccc2n1CCCN1CCN(C(c2ccccc2)c2ccccc2)CC1 [oxatomide] ) has Ki equal to 1.88

* * *

# Assayed system: wild type MiRP1/HERG channels (Homo sapiens, UniProt Q12809)
# Sequence (Q12809 whole entry): as the sequence (Q12809 whole entry) above
# Sequence (Q9Y6J6 whole entry, further chain): as the sequence (Q9Y6J6 whole entry I57T, further chain) above, with T57I counted along it
# Protocol description: cell-based
# Test conditions: Ki (equilibrium inhibition constant), wild type MiRP1
Quantity: Ki
Show the value, then the unit it is measured in.

Ki reading for O=c1[nH]c2ccccc2n1CCCN1CCN(C(c2ccccc2)c2ccccc2)CC1 [oxatomide] : 422 nM
